# tested_system: Recombinant human CD33 protein (Homo sapiens (Human), UniProt P20138)
# procedure_text: CD33 competitive binding assay for HTS drug screen (fluorescent multivalent sialic acid probe)
measure: EC50 (nM)

compound=CC(=O)N[C@H]1[C@H]([C@H](O)[C@H](O)CNC(=O)c2ccc3ncccc3n2)O[C@@](CCN2CCOC[C@@]23CCN(C(=O)OC(C)(C)C)C3)(C(=O)O)C[C@@H]1O measure=EC50 value_units=nM measured_result=22
compound=CC(=O)N[C@H]1[C@H]([C@H](O)[C@H](O)CNC(=O)c2cc(Cl)[nH]n2)O[C@@](CCN2CCOC[C@@]23CCN(C(=O)OC(C)(C)C)C3)(C(=O)O)C[C@@H]1O measure=EC50 value_units=nM measured_result=80
compound="CC(=O)N[C@H]1[C@H]2O[C@](C(=O)O)(CC/C=C/CO[C@H]3C[C@H](CN3C(=O)C3CCCOC3)OCCOc3c(C)cc(cc3C)C(=O)NC[C@@H](O)[C@H]2O)C[C@@H]1O (some centres unmarked)" measure=EC50 value_units=nM measured_result=66100
compound=CC(=O)N[C@H]1[C@H]([C@H](O)[C@H](O)CNC(=O)c2cc(C)c(O)c(C)c2)O[C@@](CCN2CCOC[C@@]23CCN(C(=O)N2CCCC2)C3)(C(=O)O)C[C@@H]1O measure=EC50 value_units=nM measured_result=833
compound=CC(=O)N[C@H]1[C@H]([C@H](O)[C@H](O)CNC(=O)c2cc(C)c(O)c(C)c2)O[C@@](CCN2CCOC[C@@]23CCN(C(=O)c2ccccc2)C3)(C(=O)O)C[C@@H]1O measure=EC50 value_units=nM measured_result=921

* * *

Measured DSF (dTmD), listed per entry.
# tested_system: Recombinant Human Siglec-3/CD33 protein (His-CD33) (Homo sapiens (Human), UniProt P20138)
# Sequence (P20138 18-259): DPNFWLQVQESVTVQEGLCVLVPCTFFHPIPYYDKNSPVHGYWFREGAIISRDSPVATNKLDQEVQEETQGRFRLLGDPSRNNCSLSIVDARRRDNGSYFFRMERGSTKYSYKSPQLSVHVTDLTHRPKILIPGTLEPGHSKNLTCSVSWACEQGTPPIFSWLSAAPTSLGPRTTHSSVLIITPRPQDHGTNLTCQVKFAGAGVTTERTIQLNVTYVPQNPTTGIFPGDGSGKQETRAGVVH
# procedure_text: Differential scanning fluorimetry (DSF) thermal shift assay
# Format: binding
# condition: difference in thermal melt of CD33 protein (0.5 μM) with 50 μM compound
measure: DSF (dTmD) (°C)

compound="CC(=O)N[C@H]1[C@H]([C@H](O)[C@H](O)CNC(=O)c2cc(C)c(O)c(C)c2)O[C@@](C/C=C/c2cccc(CNC(=O)C3CCC[C@H](Nc4ncccn4)C3)c2)(C(=O)O)C[C@@H]1O (some centres unmarked)" value_units=°C measured_result=5.1
compound=CC(=O)N[C@H]1[C@H]([C@H](O)[C@H](O)CNC(=O)c2cc(C)c(O)c(C)c2)O[C@@](CCN2CCOC[C@@]23CCN(C(=O)OC(C)(C)C)C3)(C(=O)NS(=O)(=O)C(F)(F)F)C[C@@H]1O value_units=°C measured_result=0.1
compound="CNC(=O)c1cccc(COC(=O)NCC(=O)NC2CCCCC2O[C@]2(C(=O)O)C[C@H](O)[C@@H](NC(=O)Cn3cc(C4CCCCC4)nn3)[C@H]([C@H](O)[C@H](O)CNC(=O)c3cc(C)c(O)c(C)c3)O2)c1 (some centres unmarked)" value_units=°C measured_result=3.2
compound="CC(=O)N[C@H]1[C@H]([C@H](O)[C@H](O)CNC(=O)c2cc(C)c(O)c(C)c2)O[C@@](CC2OC(C)(C)O[C@@H]2c2cccc(C(=O)NCc3ccccc3)c2)(C(=O)O)C[C@@H]1O (some centres unmarked)" value_units=°C measured_result=4.5
compound="Cc1cc(C(=O)NC[C@@H](O)[C@@H](O)[C@@H]2O[C@@](OC3CCCCC3NC(=O)Cn3cc(Cn4ncc5ccccc5c4=O)nn3)(C(=O)O)C[C@H](O)[C@H]2NC(=O)Cn2cc(C3CCCCC3)nn2)cc(C)c1O (some centres unmarked)" value_units=°C measured_result=4.9

* * *

# tested_system: Recombinant Human Siglec-3/CD33 protein (His-CD33) (Homo sapiens (Human))
# procedure_text: Differential scanning fluorimetry (DSF) thermal shift assay
# Format: binding
# condition: difference in thermal melt of CD33 protein (0.5 μM) with 50 μM compound
Measured DSF (dTmD), listed per entry.
measure: DSF (dTmD) (°C)

smiles_entry=Cc1cc(C(=O)NC[C@@H](O)[C@@H](O)[C@@H]2O[C@@](C/C=C/c3cccc(CNC(=O)OC(C)(C)C)c3)(C(=O)O)C[C@H](O)[C@H]2NC(=O)Cn2cc(C3CCCCC3)nn2)cc(C)c1O tested_system="Recombinant Human Siglec-3/CD33 protein (His-CD33) (Homo sapiens (Human))" measure="DSF (dTmD)" value_units=°C measured_result=9.0
smiles_entry=Cc1cc(C(=O)NC[C@@H](O)[C@@H](O)[C@@H]2O[C@@](C/C=C/c3cccc(CNC(=O)CC4CCOCC4)c3)(C(=O)O)C[C@H](O)[C@H]2NC(=O)Cn2cc(C3CCCCC3)nn2)cc(C)c1O tested_system="Recombinant Human Siglec-3/CD33 protein (His-CD33) (Homo sapiens (Human))" measure="DSF (dTmD)" value_units=°C measured_result=5.7
smiles_entry=CC(=O)N[C@H]1[C@H]([C@H](O)[C@H](O)CNC(=O)c2cc(C)c(O)c(C)c2)O[C@@](C/C=C/c2cccc(-c3cc(N)on3)c2)(C(=O)O)C[C@@H]1O tested_system="Recombinant Human Siglec-3/CD33 protein (His-CD33) (Homo sapiens (Human))" measure="DSF (dTmD)" value_units=°C measured_result=2.9

* * *

Measured DSF (dTmD), listed per entry.
# tested_system: Recombinant Human Siglec-3/CD33 protein (His-CD33) (Homo sapiens (Human))
# procedure_text: Differential scanning fluorimetry (DSF) thermal shift assay
# Format: binding
# condition: difference in thermal melt of CD33 protein (0.5 μM) with 50 μM compound
measure: DSF (dTmD) (°C)

compound="Cc1ccc(CN(C)C(=O)C2CCCOC2)cc1/C=C/C[C@]1(C(=O)O)C[C@H](O)[C@@H](NC(=O)Cn2cc(C3CCCCC3)nn2)[C@H]([C@H](O)[C@H](O)CNC(=O)c2cc(C)c(O)c(C)c2)O1 (stereo partly shown)" measured_result=6.0
compound="CC(=O)N[C@H]1[C@H]([C@H](O)[C@H](O)CNC(=O)c2cc(C)c(O)c(C)c2)O[C@@](CC2OC(C)(C)O[C@H]2c2cccc(CN3CCOCC3)c2)(C(=O)O)C[C@@H]1O (stereo partly shown)" measured_result=0.0
compound=Cc1cc(C(=O)NC[C@@H](O)[C@@H](O)[C@@H]2O[C@@](C/C=C/c3cccc(CNC(=O)c4scnc4C)c3)(C(=O)O)C[C@H](O)[C@H]2NC(=O)Cn2cc(C3CCCCC3)nn2)cc(C)c1O measured_result=6.2
compound="Cc1cc(C(=O)NC[C@@H](O)[C@@H](O)[C@@H]2O[C@@](OC3CCCCC3NC(=O)Cn3cc(-c4ccccc4)nn3)(C(=O)O)C[C@H](O)[C@H]2NC(=O)Cn2cc(C3CCCCC3)nn2)cc(C)c1O (stereo partly shown)" measured_result=4.5
compound=Cc1cc2cc(C)c1OCCNC(=O)CCCCCCCC[C@]1(C(=O)O)C[C@H](O)[C@@H](NC(=O)Cn3cc(C4CCCCC4)nn3)[C@@H](O1)[C@H](O)[C@H](O)CNC2=O measured_result=3.6
compound="CC(=O)N[C@H]1[C@H]([C@H](O)[C@H](O)CNC(=O)c2cc(C)c(O)c(C)c2)O[C@@](C[C@@H]2COC[C@]3(CCN(C(=O)OC(C)(C)C)C3)N2)(C(=O)O)C[C@@H]1O [A-229]" measured_result=13.0
compound="CC(=O)N[C@H]1[C@H]([C@H](O)[C@H](O)CNC(=O)c2cc(C)c(O)c(C)c2)O[C@@](CC2OC(C)(C)O[C@H]2c2ccccc2CNC(=O)OC(C)(C)C)(C(=O)O)C[C@@H]1O (stereo partly shown)" measured_result=3.5
compound="CC(=O)N[C@H]1[C@H]([C@H](O)[C@H](O)CNC(=O)c2cc(C)c(O)c(C)c2)O[C@@](C/C=C/c2ccccc2CNC(=O)C2CCCOC2)(C(=O)O)C[C@@H]1O (stereo partly shown)" measured_result=3.0
compound="CC(=O)N[C@H]1[C@H]([C@H](O)[C@H](O)CNC(=O)c2cc(C)c(O)c(C)c2)O[C@@](CC2OC(C)(C)O[C@@H]2c2ccc(C)c(N3CCCC3=O)c2)(C(=O)O)C[C@@H]1O (stereo partly shown)" measured_result=4.8
compound=Cc1cc(C(=O)NC[C@@H](O)[C@@H](O)[C@@H]2O[C@@](C/C=C/c3cccc(CNC(=O)c4ccn(C)c(=O)c4)c3)(C(=O)O)C[C@H](O)[C@H]2NC(=O)Cn2cc(C3CCCCC3)nn2)cc(C)c1O measured_result=5.4

* * *

# tested_system: Recombinant human CD33 protein (Homo sapiens (Human), UniProt P20138)
# procedure_text: CD33 competitive binding assay for HTS drug screen (fluorescent multivalent sialic acid probe)
Measured EC50, listed per entry.
measure: EC50 (nM)

compound=CC(=O)N[C@H]1[C@H]([C@H](O)[C@H](O)CNC(=O)c2cc(C)c(O)c(C)c2)O[C@@](CCN2CCOC[C@@]23CCN(C(=O)OC(C)(C)C)C3)(C(=O)O)C[C@@H]1O tested_system="Recombinant human CD33 protein (Homo sapiens (Human), UniProt P20138)" value_units=nM measured_result=15
compound=CC(=O)N[C@H]1[C@H]([C@H](O)[C@H](O)CNC(=O)c2cc(C)c(O)c(C)c2)O[C@@](CCN2CCOC[C@@]23CCN(C(=O)NC(C)(C)C)C3)(C(=O)O)C[C@@H]1O tested_system="Recombinant human CD33 protein (Homo sapiens (Human), UniProt P20138)" value_units=nM measured_result=12
compound=CC(=O)N[C@H]1[C@H]([C@H](O)[C@H](O)CNC(=O)c2cc(C)on2)O[C@@](CCN2CCOC[C@@]23CCN(C(=O)OC(C)(C)C)C3)(C(=O)O)C[C@@H]1O tested_system="Recombinant human CD33 protein (Homo sapiens (Human), UniProt P20138)" value_units=nM measured_result=2080
compound="Cc1cc(C(=O)NCC(O)C[C@@H]2O[C@@](C/C=C/C3CCN(C(=O)OC(C)(C)C)C3)(C(=O)O)CCC2C)cc2cc[nH]c12 (single isomer, unassigned) [A-211]" tested_system="Recombinant human CD33 protein (Homo sapiens (Human), UniProt P20138)" value_units=nM measured_result=15200
compound=CC(=O)N[C@H]1[C@H]([C@H](O)[C@H](O)CNC(=O)c2cc(C)c(O)c(C)c2)O[C@@](C/C=C/c2cccc(CNC(=O)c3ccc4[nH]nnc4c3)c2)(C(=O)O)C[C@@H]1O tested_system="Recombinant human CD33 protein (Homo sapiens (Human), UniProt P20138)" value_units=nM measured_result=5030
